// data source = BigSolDB 2.1

Conditions: in isopropanol, 298.15 K
assay-metric: solubility (mole fraction)
The reply should be a number, written without any unit.

input: Request the reported solubility (mole fraction) associated with O=C(Nc1ccc([N+](=O)[O-])cc1Cl)c1cc(Cl)ccc1O
output: 0.000242

----------
Conditions: in DMSO, 303.15 K
assay-metric: solubility (mole fraction)
The reply should be a number, written without any unit.

input: Request the reported solubility (mole fraction) associated with O=C(Nc1ccc([N+](=O)[O-])cc1Cl)c1cc(Cl)ccc1O
output: 0.000161

----------
Details: in PEG-200, 313.15 K
assay-metric: solubility (mole fraction)

input: Request the reported solubility (mole fraction) associated with O=C(Nc1ccc([N+](=O)[O-])cc1Cl)c1cc(Cl)ccc1O
output: 0.000666

----------
Details: in PEG-400, 303.15 K
assay-metric: solubility (mole fraction)
The reply should be a number, written without any unit.

input: Request the reported solubility (mole fraction) associated with O=C(Nc1ccc([N+](=O)[O-])cc1Cl)c1cc(Cl)ccc1O
output: 0.00129

----------
Conditions: in water, 303.15 K
assay-metric: solubility (mole fraction)
The reply should be a number, written without any unit.

input: Request the reported solubility (mole fraction) associated with O=C(Nc1ccc([N+](=O)[O-])cc1Cl)c1cc(Cl)ccc1O
output: 4.12e-07

----------
Settings: in DMSO, 308.15 K
assay-metric: solubility (mole fraction)
The reply should be a number, written without any unit.

input: Request the reported solubility (mole fraction) associated with O=C(Nc1ccc([N+](=O)[O-])cc1Cl)c1cc(Cl)ccc1O
output: 0.000165

----------
Conditions: in DMSO, 323.15 K
assay-metric: solubility (mole fraction)
The reply should be a number, written without any unit.

input: Request the reported solubility (mole fraction) associated with O=C(Nc1ccc([N+](=O)[O-])cc1Cl)c1cc(Cl)ccc1O
output: 0.000205

----------
Settings: in DMSO, 318.15 K
assay-metric: solubility (mole fraction)

input: Request the reported solubility (mole fraction) associated with O=C(Nc1ccc([N+](=O)[O-])cc1Cl)c1cc(Cl)ccc1O
output: 0.00017

----------
Conditions: in methanol, 323.15 K
assay-metric: solubility (mole fraction)
The reply should be a number, written without any unit.

input: Request the reported solubility (mole fraction) associated with O=C(Nc1ccc([N+](=O)[O-])cc1Cl)c1cc(Cl)ccc1O
output: 5.35e-05

----------
Conditions: in n-butanol, 303.15 K
assay-metric: solubility (mole fraction)
The reply should be a number, written without any unit.

input: Request the reported solubility (mole fraction) associated with O=C(Nc1ccc([N+](=O)[O-])cc1Cl)c1cc(Cl)ccc1O
output: 0.000309

----------
Conditions: in PEG-200, 323.15 K
assay-metric: solubility (mole fraction)

input: Request the reported solubility (mole fraction) associated with O=C(Nc1ccc([N+](=O)[O-])cc1Cl)c1cc(Cl)ccc1O
output: 0.00079

----------
Conditions: in methanol, 308.15 K
assay-metric: solubility (mole fraction)
The reply should be a number, written without any unit.

input: Request the reported solubility (mole fraction) associated with O=C(Nc1ccc([N+](=O)[O-])cc1Cl)c1cc(Cl)ccc1O
output: 6.9e-05

----------
Settings: in ethanol, 303.15 K
assay-metric: solubility (mole fraction)

input: Request the reported solubility (mole fraction) associated with O=C(Nc1ccc([N+](=O)[O-])cc1Cl)c1cc(Cl)ccc1O
output: 0.000183

----------
Conditions: in isopropanol, 318.15 K
assay-metric: solubility (mole fraction)
The reply should be a number, written without any unit.

input: Request the reported solubility (mole fraction) associated with O=C(Nc1ccc([N+](=O)[O-])cc1Cl)c1cc(Cl)ccc1O
output: 0.000345

----------
Details: in water, 308.15 K
assay-metric: solubility (mole fraction)

input: Request the reported solubility (mole fraction) associated with O=C(Nc1ccc([N+](=O)[O-])cc1Cl)c1cc(Cl)ccc1O
output: 4.19e-07

----------
Conditions: in methanol, 313.15 K
assay-metric: solubility (mole fraction)
The reply should be a number, written without any unit.

input: Request the reported solubility (mole fraction) associated with O=C(Nc1ccc([N+](=O)[O-])cc1Cl)c1cc(Cl)ccc1O
output: 6.75e-05

----------
Settings: in ethanol, 318.15 K
assay-metric: solubility (mole fraction)
The reply should be a number, written without any unit.

input: Request the reported solubility (mole fraction) associated with O=C(Nc1ccc([N+](=O)[O-])cc1Cl)c1cc(Cl)ccc1O
output: 0.000199

----------
Conditions: in methanol, 303.15 K
assay-metric: solubility (mole fraction)

input: Request the reported solubility (mole fraction) associated with O=C(Nc1ccc([N+](=O)[O-])cc1Cl)c1cc(Cl)ccc1O
output: 7.69e-05

----------
Conditions: in PEG-200, 308.15 K
assay-metric: solubility (mole fraction)
The reply should be a number, written without any unit.

input: Request the reported solubility (mole fraction) associated with O=C(Nc1ccc([N+](=O)[O-])cc1Cl)c1cc(Cl)ccc1O
output: 0.000604

----------
Conditions: in water, 298.15 K
assay-metric: solubility (mole fraction)
The reply should be a number, written without any unit.

input: Request the reported solubility (mole fraction) associated with O=C(Nc1ccc([N+](=O)[O-])cc1Cl)c1cc(Cl)ccc1O
output: 3.27e-07

----------
Conditions: in isopropanol, 313.15 K
assay-metric: solubility (mole fraction)
The reply should be a number, written without any unit.

input: Request the reported solubility (mole fraction) associated with O=C(Nc1ccc([N+](=O)[O-])cc1Cl)c1cc(Cl)ccc1O
output: 0.000304

----------
Settings: in water, 318.15 K
assay-metric: solubility (mole fraction)
The reply should be a number, written without any unit.

input: Request the reported solubility (mole fraction) associated with O=C(Nc1ccc([N+](=O)[O-])cc1Cl)c1cc(Cl)ccc1O
output: 4.74e-07

----------
Conditions: in n-butanol, 318.15 K
assay-metric: solubility (mole fraction)
The reply should be a number, written without any unit.

input: Request the reported solubility (mole fraction) associated with O=C(Nc1ccc([N+](=O)[O-])cc1Cl)c1cc(Cl)ccc1O
output: 0.000402

----------
Conditions: in PEG-200, 318.15 K
assay-metric: solubility (mole fraction)
The reply should be a number, written without any unit.

input: Request the reported solubility (mole fraction) associated with O=C(Nc1ccc([N+](=O)[O-])cc1Cl)c1cc(Cl)ccc1O
output: 0.000686

----------
Details: in water, 313.15 K
assay-metric: solubility (mole fraction)
The reply should be a number, written without any unit.

input: Request the reported solubility (mole fraction) associated with O=C(Nc1ccc([N+](=O)[O-])cc1Cl)c1cc(Cl)ccc1O
output: 4.27e-07

----------
Settings: in PEG-400, 313.15 K
assay-metric: solubility (mole fraction)
The reply should be a number, written without any unit.

input: Request the reported solubility (mole fraction) associated with O=C(Nc1ccc([N+](=O)[O-])cc1Cl)c1cc(Cl)ccc1O
output: 0.00159

----------
Conditions: in isopropanol, 303.15 K
assay-metric: solubility (mole fraction)

input: Request the reported solubility (mole fraction) associated with O=C(Nc1ccc([N+](=O)[O-])cc1Cl)c1cc(Cl)ccc1O
output: 0.000274

----------
Conditions: in methanol, 298.15 K
assay-metric: solubility (mole fraction)
The reply should be a number, written without any unit.

input: Request the reported solubility (mole fraction) associated with O=C(Nc1ccc([N+](=O)[O-])cc1Cl)c1cc(Cl)ccc1O
output: 7.78e-05

----------
Conditions: in n-butanol, 298.15 K
assay-metric: solubility (mole fraction)
The reply should be a number, written without any unit.

input: Request the reported solubility (mole fraction) associated with O=C(Nc1ccc([N+](=O)[O-])cc1Cl)c1cc(Cl)ccc1O
output: 0.000305

----------
Conditions: in DMSO, 313.15 K
assay-metric: solubility (mole fraction)
The reply should be a number, written without any unit.

input: Request the reported solubility (mole fraction) associated with O=C(Nc1ccc([N+](=O)[O-])cc1Cl)c1cc(Cl)ccc1O
output: 0.000167

----------
Conditions: in n-butanol, 308.15 K
assay-metric: solubility (mole fraction)
The reply should be a number, written without any unit.

input: Request the reported solubility (mole fraction) associated with O=C(Nc1ccc([N+](=O)[O-])cc1Cl)c1cc(Cl)ccc1O
output: 0.000345
